subject-of-test: CA IX (Homo sapiens, UniProt Q16790)
property: IC50 (µM)
Give bare numbers, in µM.

Lookup: // output IC50; input O=c1ccc2ccc(O[C@@H]3O[C@H](CO)[C@@H](O)[C@H](O)[C@H]3O)cc2o1 ; system CA IX (Homo sapiens, UniProt Q16790)
Found: 0.548

Sourced from paper PMC11497074
